meta.source: patent US20160159924A1

- target_of_assay: T1, recombinant human sc-uPA (human, UniProt P00749 21-431)
- T1 construct: 411 amino acid single-chain zymogen expressed in HEK293; the 20-residue signal peptide is not present in the mature protein; also called human single-chain uPA; pro-uPA
- assay_text: SPR, mAb immobilised
property_label: pKd
In plain terms, pKd is the concentration in mol/L turned into minus its base-10 logarithm.

Worked examples, 2 binders total:
binder	pKd
rec0266-0000-0010-VL_S91H (antibody, mouse IgG1, name in Kabat numbering, V domains shown) VH: DVKLVESGGGLVKPGGSLKLSCVASGFTFSSYTMSWVRQTPEKRLEWVATISGGGSHIYYADSVKGRFTISRDNAKNTLYLQMSSLKSEDTAIYYCTRDGRDGSWFAYWGQGTLVTVSA VL: DIVMTQSPATLSVTPGDRVSLSCRTSQSIGDYLHWYQQKSHESPRLLIKYVSQSISGIPSRFSGSGSGSDFTLSINSVESEDVGVYYCQNHHSFPLTFGSGTKLELKR	8.28
rec0266-0000-0010-VL_N90Y (antibody, mouse IgG1, name in Kabat numbering, V domains shown) VH: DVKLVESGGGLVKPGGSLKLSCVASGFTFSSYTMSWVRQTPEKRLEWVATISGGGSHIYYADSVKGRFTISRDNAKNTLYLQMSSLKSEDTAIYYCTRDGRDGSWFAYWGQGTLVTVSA VL: DIVMTQSPATLSVTPGDRVSLSCRTSQSIGDYLHWYQQKSHESPRLLIKYVSQSISGIPSRFSGSGSGSDFTLSINSVESEDVGVYYCQYSHSFPLTFGSGTKLELKR	9.10

Now for the binder whose pKd we want.
Q) Kindly indicate its recorded pKd. Item: rec0266-0000-0010-VL_S91D (antibody, mouse IgG1, name in Kabat numbering, V domains shown) VH: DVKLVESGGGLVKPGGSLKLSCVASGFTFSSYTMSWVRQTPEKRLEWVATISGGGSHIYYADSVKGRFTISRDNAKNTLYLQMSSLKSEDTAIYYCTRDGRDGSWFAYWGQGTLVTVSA VL: DIVMTQSPATLSVTPGDRVSLSCRTSQSIGDYLHWYQQKSHESPRLLIKYVSQSISGIPSRFSGSGSGSDFTLSINSVESEDVGVYYCQNDHSFPLTFGSGTKLELKR
A) 8.68
